TEST_TARGET: HDAC6 enzyme (Homo sapiens)
Construct: transducing full length HDAC6 gene into Sf-9 insect cells; GST; purchased SignalChem; host or cells: Sf-9 insect cells
ASSAY_TEXT: HDAC6 enzyme inhibitory activity (HDAC-Glo I/II Assay kit)
Format: biochemical
SETTINGS: 10 μM; wells without enzyme = 100% inhibition; read-out: HDAC6 inhibitory rate (%) (10 μM)
MEASURED_PROPERTY: inhibition at 10 µM (%)

{"MOL_SMILES": "N[C@H]1COCC[C@H]1N1Cc2ccc(-c3nnc(C(F)F)o3)cc2C1=O", "inhibition at 10 µM / %": 87}
{"MOL_SMILES": "O=C1c2cc(-c3nnc(C(F)F)o3)cnc2CN1C1(c2ccccc2F)CC1", "inhibition at 10 µM / %": 99}
{"MOL_SMILES": "O=C1c2cc(-c3nnc(C(F)F)o3)cnc2CN1Cc1ccc(Cl)s1", "inhibition at 10 µM / %": 101}
{"MOL_SMILES": "O=C(CCC(F)(F)F)N[C@@H]1CCCC[C@H]1N1Cc2ccc(-c3nnc(C(F)F)o3)cc2C1=O", "inhibition at 10 µM / %": 100}

----------
TEST_TARGET: HDAC6 enzyme (Homo sapiens)
Construct: transducing full length HDAC6 gene into Sf-9 insect cells; GST; purchased SignalChem; host or cells: Sf-9 insect cells
ASSAY_TEXT: HDAC6 enzyme inhibitory activity (HDAC-Glo I/II Assay kit)
Assay type: biochemical
SETTINGS: 10 μM; wells without enzyme = 100% inhibition; read-out: HDAC6 inhibitory rate (%) (10 μM)
MEASURED_PROPERTY: inhibition at 10 µM (%)

{"COMPOUND": "CC(C)OC(=O)N1CCOC[C@@H]1CN1Cc2ccc(-c3nnc(C(F)F)o3)cc2C1=O", "ENDPOINT_UNIT": "%", "inhibition at 10 µM": 97}
{"COMPOUND": "CC(F)(F)C(=O)N[C@@H]1[C@H](N2Cc3ccc(-c4nnc(C(F)F)o4)cc3C2=O)CCCC1(F)F", "ENDPOINT_UNIT": "%", "inhibition at 10 µM": 100}
{"COMPOUND": "O=C1c2cc(-c3nnc(C(F)F)o3)ccc2CN1c1ccc(F)cc1-n1cc(C(F)(F)F)cn1", "ENDPOINT_UNIT": "%", "inhibition at 10 µM": 100}
{"COMPOUND": "CC(C)(C#N)C(=O)N[C@@H]1CCCC[C@H]1N1Cc2ccc(-c3nnc(C(F)F)o3)cc2C1=O", "ENDPOINT_UNIT": "%", "inhibition at 10 µM": 100}
{"COMPOUND": "O=C1c2cc(-c3nnc(C(F)F)o3)ccc2CN1[C@@H]1CCCC[C@H]1n1cccn1 (racemic) [Example 514]", "ENDPOINT_UNIT": "%", "inhibition at 10 µM": 99}
{"COMPOUND": "O=C1c2cc(-c3nnc(C(F)F)o3)cnc2CN1[C@@H]1CCCC[C@H]1Oc1ccc(F)cc1 (racemic) [Example 535]", "ENDPOINT_UNIT": "%", "inhibition at 10 µM": 99}
{"COMPOUND": "O=C1c2cc(-c3nnc(C(F)F)o3)ccc2CN1[C@@H]1CCCC(F)(F)[C@@H]1NC(=O)C(F)(F)C(F)(F)F", "ENDPOINT_UNIT": "%", "inhibition at 10 µM": 101}

----------
TEST_TARGET: HDAC6 enzyme (Homo sapiens, UniProt Q9UBN7)
Construct: transducing full length HDAC6 gene into Sf-9 insect cells; GST; purchased SignalChem; host or cells: Sf-9 insect cells
ASSAY_TEXT: HDAC6 enzyme inhibitory activity (HDAC-Glo I/II Assay kit)
Format: biochemical
SETTINGS: 10 μM; wells without enzyme = 100% inhibition; read-out: HDAC6 inhibitory rate (%) (10 μM)
MEASURED_PROPERTY: inhibition at 10 µM (%)

{"MOL_SMILES": "N#Cc1cccc(-c2ccccc2N2Cc3ncc(-c4nnc(C(F)F)o4)cc3C2=O)c1", "inhibition at 10 µM, %": 99}
{"MOL_SMILES": "O=C1c2cc(-c3nnc(C(F)F)o3)cc(F)c2CN1[C@@H]1COCC[C@H]1NCC(F)(F)F", "inhibition at 10 µM, %": 101}
{"MOL_SMILES": "O=C1c2cc(-c3nnc(C(F)F)o3)ccc2CN1c1ccc(F)cc1-c1cccc(F)c1", "inhibition at 10 µM, %": 101}
{"MOL_SMILES": "COC(=O)N1CC[C@@H](N2Cc3ncc(-c4nnc(C(F)F)o4)cc3C2=O)[C@@H](c2ccccc2)C1", "inhibition at 10 µM, %": 100}
{"MOL_SMILES": "O=C1c2cc(-c3nnc(C(F)F)o3)cc(F)c2CN1[C@@H]1CCCC[C@H]1NC(=O)C(F)(F)F", "inhibition at 10 µM, %": 99}
{"MOL_SMILES": "O=C1c2cc(-c3nnc(C(F)F)o3)ccc2CN1[C@@H]1CCCC[C@H]1NC(=O)C1(C(F)(F)F)CCC1", "inhibition at 10 µM, %": 98}
{"MOL_SMILES": "Cc1cc(CN2Cc3ncc(-c4nnc(C(F)F)o4)cc3C2=O)no1", "inhibition at 10 µM, %": 99}
{"MOL_SMILES": "CCOC(=O)N1CCC(N2Cc3ccc(-c4nnc(C(F)F)o4)cc3C2=O)CC1", "inhibition at 10 µM, %": 93}

----------
TEST_TARGET: HDAC6 enzyme (Homo sapiens, UniProt Q9UBN7)
Construct: transducing full length HDAC6 gene into Sf-9 insect cells; GST; purchased SignalChem; host or cells: Sf-9 insect cells
Sequence (Q9UBN7 1-1215): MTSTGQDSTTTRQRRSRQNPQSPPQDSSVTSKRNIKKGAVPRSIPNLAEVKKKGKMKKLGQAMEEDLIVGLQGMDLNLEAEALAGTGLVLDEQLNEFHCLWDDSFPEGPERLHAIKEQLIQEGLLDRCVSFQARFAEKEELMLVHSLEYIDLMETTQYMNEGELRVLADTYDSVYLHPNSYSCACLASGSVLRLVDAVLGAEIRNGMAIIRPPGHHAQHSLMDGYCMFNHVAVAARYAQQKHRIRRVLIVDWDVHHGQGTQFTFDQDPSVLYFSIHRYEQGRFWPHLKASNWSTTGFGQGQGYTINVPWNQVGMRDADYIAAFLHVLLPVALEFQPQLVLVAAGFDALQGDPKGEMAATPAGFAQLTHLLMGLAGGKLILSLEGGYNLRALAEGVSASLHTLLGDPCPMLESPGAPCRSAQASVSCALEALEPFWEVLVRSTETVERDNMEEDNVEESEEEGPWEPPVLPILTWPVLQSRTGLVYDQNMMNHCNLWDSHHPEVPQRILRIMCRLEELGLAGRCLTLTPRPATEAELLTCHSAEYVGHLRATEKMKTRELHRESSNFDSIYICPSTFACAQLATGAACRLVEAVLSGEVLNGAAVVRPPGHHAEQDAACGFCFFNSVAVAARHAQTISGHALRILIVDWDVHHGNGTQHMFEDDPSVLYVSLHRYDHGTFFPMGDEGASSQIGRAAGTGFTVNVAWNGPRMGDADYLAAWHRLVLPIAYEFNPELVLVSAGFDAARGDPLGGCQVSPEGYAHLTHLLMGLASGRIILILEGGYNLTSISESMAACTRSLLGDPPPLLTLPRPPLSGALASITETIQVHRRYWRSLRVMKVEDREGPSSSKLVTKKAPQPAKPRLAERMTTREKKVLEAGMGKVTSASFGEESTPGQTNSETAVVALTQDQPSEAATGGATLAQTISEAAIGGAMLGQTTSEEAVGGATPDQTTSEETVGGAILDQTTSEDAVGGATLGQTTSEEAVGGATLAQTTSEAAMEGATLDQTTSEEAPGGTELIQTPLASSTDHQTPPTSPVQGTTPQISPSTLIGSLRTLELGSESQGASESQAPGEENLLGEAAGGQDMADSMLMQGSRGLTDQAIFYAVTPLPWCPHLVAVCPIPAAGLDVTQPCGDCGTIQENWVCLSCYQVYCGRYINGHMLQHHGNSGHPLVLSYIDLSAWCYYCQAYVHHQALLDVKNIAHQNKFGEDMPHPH
ASSAY_TEXT: HDAC6 enzyme inhibitory activity (HDAC-Glo I/II Assay kit)
Format: biochemical
SETTINGS: 10 μM; wells without enzyme = 100% inhibition; read-out: HDAC6 inhibitory rate (%) (10 μM)
MEASURED_PROPERTY: inhibition at 10 µM (%)

{"MOL_SMILES": "O=C1c2cc(-c3nnc(C(F)F)o3)ccc2CN1[C@@H]1CCCC[C@H]1NC(=O)C1(C(F)(F)F)CC1", "NUMBER": 101}
{"MOL_SMILES": "COc1cccc(-c2ccccc2N2Cc3ccc(-c4nnc(C(F)F)o4)cc3C2=O)c1", "NUMBER": 102}
{"MOL_SMILES": "CC(C)(C)OC(=O)N1CCC[C@H]1CN1Cc2c(F)cc(-c3nnc(C(F)F)o3)cc2C1=O", "NUMBER": 98}
{"MOL_SMILES": "O=C(N[C@@H]1CCCC[C@H]1N1Cc2ncc(-c3nnc(C(F)F)o3)cc2C1=O)OC1CC1", "NUMBER": 97}
